System: U2OS
assayOverview: Multiplex assay against U2OS
Assay type: toxicity, cell-based
measurementConditions: human, 48 h, 10 µM, compound concentration 10 uM
measureName: Population Hoechst High Intensity Objects (%)

compound=O=C1N=C(NCc2cccs2)S/C1=C\c1ccc2ncccc2c1 valueobserved=0%
compound=CN1CCC(C(=O)c2cccc(NC(=O)c3c(F)cc(F)cc3F)n2)CC1 valueobserved=3%
compound="COCCCN1CCC(NC(=O)c2cc(Cl)c(N)c3c2OCC3)CC1 [PRUCALOPRIDE]" valueobserved=1%
compound=COc1cc2ncnc(Nc3ccc(Oc4ccccc4)cc3C)c2cc1OC.Cl valueobserved=0%
compound=C[C@@H]1C[C@H]2[C@@H]3CCC4=CC(=O)C=C[C@]4(C)[C@@]3(F)[C@@H](O)C[C@]2(C)[C@@]1(O)C(=O)CO valueobserved=2%
compound=CC(C)Oc1ccc(F)c(-c2cnc(N)c(C(=O)Nc3cnccc3N3CCC[C@@H](C(=O)O)C3)n2)c1 valueobserved=0%

Below: the item to evaluate.
Lookup: I'm curious: which Population Hoechst High Intensity Objects (%) was measured for C=C(C)[C@H]1CN[C@H](C(=O)O)[C@H]1CC(=O)O tested on U2OS?
Found: 0%

---

Each item that follows carries a reported Population Normal (%).
Tested on: U2OS
assayOverview: Multiplex assay against U2OS
Type: toxicity, cell-based
measurementConditions: human, 24 h, 10 µM, compound concentration 10 uM

As a guide, the following entries are already answered.
molecule="c1ccc2nc(N3CCNCC3)ccc2c1 [QUIPAZINE]" targetentity=U2OS measurename="Population Normal (%)" valueobserved=100%
molecule=CC(C)c1ccc(/C=N/NC(=O)c2ccc(O)cc2)cc1 targetentity=U2OS measurename="Population Normal (%)" valueobserved=100%
molecule=CC(C)Oc1ccc(F)c(-c2cnc(N)c(C(=O)Nc3cnccc3N3CCC[C@@H](C(=O)O)C3)n2)c1 targetentity=U2OS measurename="Population Normal (%)" valueobserved=100%
molecule=CC(F)(F)CN1CCOc2c(nn(-c3ccccc3Cl)c2-c2ccc(Cl)cc2)C1=O targetentity=U2OS measurename="Population Normal (%)" valueobserved=98%

Below: the item to evaluate.
Lookup: Requested read-out: Population Normal (%). Entry: COc1cc(C(=O)N2CC[C@@H](O)[C@@H](N)C2)cc2nc(-c3cc4ccccc4n3CC3CC3)n(C)c12.Cl
Found: 95%

---

Tested on: Fibroblast
assayOverview: Multiplex assay against human fibroblast
Assay type: toxicity, cell-based
measurementConditions: 12 h, 10 µM, compound concentration 10 uM
measureName: Population Membrane Permeable-Phenotype (%)

Lookup: Requested read-out: Population Membrane Permeable-Phenotype (%). Entry: CN[C@@H](C)C(=O)N[C@H](C(=O)N1CCC[C@H]1C(=O)Nc1snnc1-c1ccccc1)C1CCCCC1 [GDC-0152]
Found: 0%

Lookup: Requested read-out: Population Membrane Permeable-Phenotype (%). Entry: CSCC[C@H](NC=O)C(=O)N[C@@H](CC(C)C)C(=O)N[C@@H](Cc1ccccc1)C(=O)O
Found: 9%

Lookup: Requested read-out: Population Membrane Permeable-Phenotype (%). Entry: CCC(=O)N1CCN(c2ccc(-n3c(=O)ccc4cnc5ccc(-c6cnc7ccccc7c6)cc5c43)cc2C(F)(F)F)CC1 [TORIN1]
Found: 1%

Lookup: Requested read-out: Population Membrane Permeable-Phenotype (%). Entry: Cc1cc(O)c(-c2ccc([C@@H](C)CN(C)C)cc2)c2c1[nH]c(=O)c1sccc12
Found: 8.7% [middle of 4 runs]

Lookup: Requested read-out: Population Membrane Permeable-Phenotype (%). Entry: CSc1ccccc1N1CCN(CCCCCC(=O)NC2CCCc3ccccc32)CC1.Cl (stereo unspecified)
Found: 0%

Lookup: Requested read-out: Population Membrane Permeable-Phenotype (%). Entry: S=C(NCCCc1c[nH]cn1)NCCCN(Cc1ccc(Cl)c(Cl)c1)c1ccc(Br)cn1
Found: 0%

All values here come from ChEMBL document CHEMBL5724801.
